- Tested on: carbonic anhydrase II (CA)
- assay_info: Intact protein MS photoaffinity labeling screen, carbonic anhydrase
- Type: binding
- experimental_context: intact protein MS after 10 min irradiation
- Method: Using a plate-based format with one fragment per well, each fragment was incubated with the target proteins for 15 min to allow for the formation of non-covalent interactions. […] Finally, the results were directly analyzed from the plate using intact protein mass spectrometry by observing the mass additions that correspond to successful labeling (Fig. 2c, for labeling % values see Supplementary data). […]
observed_property: MS labeling percentage, CA (%)
Just the number please, in %, no unit attached.

Examples with their reported MS labeling percentage, CA follow.
>  <record_smiles>
Cn1cnnc1CCNC(=O)CCC1(C)N=N1

>  <assayed_system>
carbonic anhydrase II (CA)

>  <MS labeling percentage, CA / %>
0.3

$$$$
>  <record_smiles>
Cc1cccc2nc(CNC(=O)CCC3(C)N=N3)[nH]c12

>  <assayed_system>
carbonic anhydrase II (CA)

>  <MS labeling percentage, CA / %>
0.3

$$$$

Below: the item to evaluate.
Measured MS labeling percentage, CA (carbonic anhydrase II (CA)), entry "CC1(CCC(=O)NCCCn2ccnc2)N=N1" : 0.3

---

Below is a list of entries, each paired with its recorded MS labeling percentage, CA value.
- Test system: carbonic anhydrase II (CA)
- assay_info: Intact protein MS photoaffinity labeling screen, carbonic anhydrase
- Type: binding
- experimental_context: intact protein MS after 10 min irradiation
Entry rule: numbers only, all in %.

Please review the entries below; each comes with its answer.
>  <molecule>
COc1nc(C)cc(C)c1CNC(=O)CCC1(C)N=N1 [PhP068, COc1nc(C)cc(C)c1CNC(=O)CCC2(C)N=N2]

>  <assayed_system>
carbonic anhydrase II (CA)

>  <quantity_unit>
%

>  <MS labeling percentage, CA>
0.3

$$$$
>  <molecule>
Cc1nc(CCNC(=O)CCC2(C)N=N2)sc1C [PhP092, Cc1nc(sc1C)CCNC(=O)CCC2(C)N=N2]

>  <assayed_system>
carbonic anhydrase II (CA)

>  <quantity_unit>
%

>  <MS labeling percentage, CA>
0.3

$$$$
>  <molecule>
Cc1[nH]cnc1CNC(=O)CCC1(C)N=N1 [PhP009, Cc1[nH]cnc1CNC(=O)CCC2(C)N=N2]

>  <assayed_system>
carbonic anhydrase II (CA)

>  <quantity_unit>
%

>  <MS labeling percentage, CA>
0.6

$$$$
>  <molecule>
CC1(CCC(=O)NC2CCc3nccn3C2)N=N1 (centres unmarked) [PhP047, N1=NC1(C)CCC(=O)NC(CC2)Cn(c23)ccn3]

>  <assayed_system>
carbonic anhydrase II (CA)

>  <quantity_unit>
%

>  <MS labeling percentage, CA>
0.6

$$$$

Next molecule, MS labeling percentage, CA to be filled in.
Lab entry: carbonic anhydrase II (CA) assay, molecule CC1(CCC(=O)NC2CCc3nc(C(C)(C)C)cn3C2)N=N1 (centres unmarked) [PhP016] , MS labeling percentage, CA = 0.6
